Reported CTG-3D luminescence at 96 h by item:
Tested on: HCI-011.E2 (organoid from an ER-positive breast cancer xenograft)
Experiment: CTG-3D luminescence at 96 h relative to day-0 seeding control (ratio to day 0); higher = more growth / less cytotoxicity; PDxO 3D drug screen, 96 h, CTG-3D normalised to day-0 seeding control.
Conditions: 1 µM
Experimental readout: CTG-3D luminescence at 96 h

1) NC(=O)Nc1cc(-c2cccc(F)c2)sc1C(=O)N[C@H]1CCCNC1 [AZD7762]: 1.66
2) CC1(C)CCC(c2ccc(Cl)cc2)=C(CN2CCN(c3ccc(C(=O)NS(=O)(=O)c4ccc(N[C@H](CCN5CCOCC5)CSc5ccccc5)c(S(=O)(=O)C(F)(F)F)c4)cc3)CC2)C1 [navitoclax]: 1.52
3) C=CCn1c(=O)c2cnc(Nc3ccc(N4CCN(C)CC4)cc3)nc2n1-c1cccc(C(C)(C)O)n1 [adavosertib]: 1.41
4) CN(Cc1cnc2nc(N)nc(N)c2n1)c1ccc(C(=O)N[C@@H](CCC(=O)O)C(=O)O)cc1 [methotrexate]: 1.62
5) NC1(C(=O)N[C@@H](CCO)c2ccc(Cl)cc2)CCN(c2nc[nH]c3nccc2-3)CC1 [capivasertib]: 1.05

---

Test system: HCI-027 (organoid from a triple-negative breast cancer xenograft)
Assay: CTG-3D luminescence at 96 h relative to day-0 seeding control (ratio to day 0); higher = more growth / less cytotoxicity; PDxO 3D drug screen, 96 h, CTG-3D normalised to day-0 seeding control.
Conditions: 100 µM; days in culture: 194
Short version: CTG-3D luminescence at 96 h at least 0.1 is class 1, less is class 0.

1) CC[C@H](NC(=O)[C@H](C)NC)C(=O)N1C[C@@H](O)C[C@H]1Cc1c(-c2[nH]c3cc(F)ccc3c2C[C@@H]2C[C@H](O)CN2C(=O)[C@H](CC)NC(=O)[C@H](C)NC)[nH]c2cc(F)ccc12 [birinapant]: class 1
2) O=C(/C=C/c1cccnc1)NCCCCC1CCN(C(=O)c2ccccc2)CC1 [FK866]: class 0
3) O=C(O)C1(C(=O)O)CCC1.[NH2-].[NH2-].[Pt+2] [carboplatin]: class 1
4) C=CC(=O)N1CCC[C@@H](n2nc(-c3ccc(Oc4ccccc4)cc3)c3c(N)ncnc32)C1 [ibrutinib]: class 0
5) Cc1nc(-c2cn3c(n2)-c2ccc(-c4cnn(C(C)(C)C(N)=O)c4)cc2OCC3)n(C(C)C)n1 [taselisib]: class 0
6) CC1(C)CCC(c2ccc(Cl)cc2)=C(CN2CCN(c3ccc(C(=O)NS(=O)(=O)c4ccc(N[C@H](CCN5CCOCC5)CSc5ccccc5)c(S(=O)(=O)C(F)(F)F)c4)cc3)CC2)C1 [navitoclax]: class 1
7) COc1cccc2c1C(=O)c1c(O)c3c(c(O)c1C2=O)C[C@@](O)(C(=O)CO)C[C@@H]3O[C@H]1C[C@H](N)[C@H](O)[C@H](C)O1 [doxorubicin]: class 0

---

System: HCI-002 (organoid from a triple-negative breast cancer xenograft)
Assay: CTG-3D luminescence at 96 h relative to day-0 seeding control (ratio to day 0); higher = more growth / less cytotoxicity; PDxO 3D drug screen, 96 h, CTG-3D normalised to day-0 seeding control.
Settings: 10 µM; days in culture: 82
# Lookup of reported CTG-3D luminescence at 96 h keyed by entry
Experimental readout: CTG-3D luminescence at 96 h

1. C[C@@H]1COCCN1c1cc(C2([S@](C)(=N)=O)CC2)nc(-c2cc[nH]c3nccc2-3)n1: 0.818
2. Cc1nc(-c2cn3c(n2)-c2ccc(-c4cnn(C(C)(C)C(N)=O)c4)cc2OCC3)n(C(C)C)n1: 1.08
3. NC(=O)c1cccc2cn(-c3ccc([C@@H]4CCCNC4)cc3)nc12: 0.381
4. C[C@]12CC[C@@H]3c4ccc(O)cc4C[C@@H](CCCCCCCCC[S+]([O-])CCCC(F)(F)C(F)(F)F)[C@H]3[C@@H]1CC[C@@H]2O (stereo not given in full): 2.61
5. C/C=C1\NC(=O)[C@H]2CSSCC/C=C/[C@H](CC(=O)N[C@H](C(C)C)C(=O)N2)OC(=O)[C@H](C(C)C)NC1=O: -0.0117

---

System: HCI-015 (organoid from a triple-negative breast cancer xenograft)
Assay: CTG-3D luminescence at 96 h relative to day-0 seeding control (ratio to day 0); higher = more growth / less cytotoxicity; PDxO 3D drug screen (set 2), 96 h, CTG-3D normalised to day-0 seeding control.
Conditions: 0.005 µM; days in culture: 355
Experimental readout: CTG-3D luminescence at 96 h

1. Cc1c(CN2CCN(C(=O)[C@H](C)O)CC2)sc2c(N3CCOCC3)nc(-c3cnc(N)nc3)nc12: 1.01
2. CO[C@H]1C[C@@H]2CC[C@@H](C)[C@@](O)(O2)C(=O)C(=O)N2CCCC[C@H]2C(=O)O[C@H]([C@H](C)C[C@@H]2CC[C@@H](OCCO)[C@H](OC)C2)CC(=O)[C@H](C)/C=C(\C)[C@@H](O)[C@@H](OC)C(=O)[C@H](C)C[C@H](C)/C=C/C=C/C=C/1C: 1.47
3. C[C@@H](Nc1cc(F)cc(F)c1)c1cc(C(=O)N(C)C)cc2c(=O)cc(N3CCOCC3)oc12: 1.3
4. CC(=O)O[C@@]12CO[C@@H]1C[C@H](O)[C@@]1(C)C(=O)[C@H](O)C3=C(C)[C@@H](OC(=O)[C@H](O)[C@@H](NC(=O)OC(C)(C)C)c4ccccc4)C[C@@](O)([C@@H](OC(=O)c4ccccc4)[C@H]21)C3(C)C: 0.736

---

System: HCI-015
Test: CTG-3D luminescence at 96 h relative to day-0 seeding control (ratio to day 0); higher = more growth / less cytotoxicity; PDxO 3D drug screen, 96 h, CTG-3D normalised to day-0 seeding control.
Conditions: 1 µM; days in culture: 218
CTG-3D luminescence at 96 h values by entry
Experimental readout: CTG-3D luminescence at 96 h

1) C[C@]12CC[C@@H]3c4ccc(O)cc4C[C@@H](CCCCCCCCC[S+]([O-])CCCC(F)(F)C(F)(F)F)[C@H]3[C@@H]1CC[C@@H]2O (some centres not stated): 1.77
2) CCc1c2c(nc3ccc(O)cc13)-c1cc3c(c(=O)n1C2)COC(=O)[C@]3(O)CC: 0.0491
3) CC[C@H](NC(=O)[C@H](C)NC)C(=O)N1C[C@@H](O)C[C@H]1Cc1c(-c2[nH]c3cc(F)ccc3c2C[C@@H]2C[C@H](O)CN2C(=O)[C@H](CC)NC(=O)[C@H](C)NC)[nH]c2cc(F)ccc12: 0.125
4) NC1(C(=O)N[C@@H](CCO)c2ccc(Cl)cc2)CCN(c2nc[nH]c3nccc2-3)CC1: 0.974
5) O=C(c1ccc(F)c(F)c1Nc1ccc(I)cc1F)N1CC(O)([C@@H]2CCCCN2)C1: 1.39
6) CC(=O)O[C@H]1C(=O)[C@@]2(C)[C@H]([C@H](OC(=O)c3ccccc3)[C@]3(O)C[C@H](OC(=O)[C@H](O)[C@@H](NC(=O)c4ccccc4)c4ccccc4)C(C)=C1C3(C)C)[C@]1(OC(C)=O)CO[C@@H]1C[C@@H]2O: 0.505
7) Cc1cc(Nc2ncnc3ccc(NC4=NC(C)(C)CO4)cc23)ccc1Oc1ccn2ncnc2c1: 1.5

---

CTG-3D luminescence at 96 h for assorted molecules
Tested on: HCI-011.E2
Assay: CTG-3D luminescence at 96 h relative to day-0 seeding control (ratio to day 0); higher = more growth / less cytotoxicity; PDxO 3D drug screen, 96 h, CTG-3D normalised to day-0 seeding control.
Conditions: 1 µM
Experimental readout: CTG-3D luminescence at 96 h

1. O=C(O)C1(C(=O)O)CCC1.[NH2-].[NH2-].[Pt+2] [carboplatin]: 1.71
2. CCN1CCN(Cc2ccc(Nc3ncc(F)c(-c4cc(F)c5nc(C)n(C(C)C)c5c4)n3)nc2)CC1 [abemaciclib]: 1.52
3. C/C=C1\NC(=O)[C@H]2CSSCC/C=C/[C@H](CC(=O)N[C@H](C(C)C)C(=O)N2)OC(=O)[C@H](C(C)C)NC1=O [romidepsin]: 0.382
4. C[C@@H]1COCCN1c1cc(C2([S@](C)(=N)=O)CC2)nc(-c2cc[nH]c3nccc2-3)n1 [ceralasertib]: 1.42
5. CC(=O)O[C@H]1C(=O)[C@@]2(C)[C@H]([C@H](OC(=O)c3ccccc3)[C@]3(O)C[C@H](OC(=O)[C@H](O)[C@@H](NC(=O)c4ccccc4)c4ccccc4)C(C)=C1C3(C)C)[C@]1(OC(C)=O)CO[C@@H]1C[C@@H]2O [paclitaxel]: 1.34
6. CNC(=O)c1cccc(-c2ccc3c(N4CCOC[C@@H]4C)nc(N4CCOC[C@@H]4C)nc3n2)c1 [vistusertib]: 0.256

---

# reported CTG-3D luminescence at 96 h; entries follow
Tested on: HCI-011.E2
Experiment: CTG-3D luminescence at 96 h relative to day-0 seeding control (ratio to day 0); higher = more growth / less cytotoxicity; PDxO 3D drug screen, 96 h, CTG-3D normalised to day-0 seeding control.
Conditions: 10 µM; days in culture: 74
Experimental readout: CTG-3D luminescence at 96 h

1) NC1(C(=O)N[C@@H](CCO)c2ccc(Cl)cc2)CCN(c2nc[nH]c3nccc2-3)CC1: 0.548
2) Cc1cc(Nc2ncc(Cl)c(Nc3ccccc3S(=O)(=O)C(C)C)n2)c(OC(C)C)cc1C1CCNCC1: 0.0662
3) CS(=O)(=O)c1ccc(C(=O)Nc2ccc(Cl)c(-c3ccccn3)c2)c(Cl)c1: 3.48
4) C[C@@H]1COCCN1c1cc(C2([S@](C)(=N)=O)CC2)nc(-c2cc[nH]c3nccc2-3)n1: 0.982
5) CC(=O)O[C@H]1C(=O)[C@@]2(C)[C@H]([C@H](OC(=O)c3ccccc3)[C@]3(O)C[C@H](OC(=O)[C@H](O)[C@@H](NC(=O)c4ccccc4)c4ccccc4)C(C)=C1C3(C)C)[C@]1(OC(C)=O)CO[C@@H]1C[C@@H]2O: 2.73
6) O=C(/C=C/c1cccnc1)NCCCCC1CCN(C(=O)c2ccccc2)CC1: 2.79
7) Nc1ccn([C@@H]2O[C@H](CO)[C@@H](O)C2(F)F)c(=O)n1: 2.75
8) CNC(=O)c1cccc(-c2ccc3c(N4CCOC[C@@H]4C)nc(N4CCOC[C@@H]4C)nc3n2)c1: 0.247
9) C=CCn1c(=O)c2cnc(Nc3ccc(N4CCN(C)CC4)cc3)nc2n1-c1cccc(C(C)(C)O)n1: 2.35
